Ref: patent US20230141600A1

tested on: Acinetobacter baumannii ATCC17961; assay: 90% growth inhibitory concentration (IC90) determination, antimicrobial susceptibility testing; assay type: cell-based; conditions: Acinetobacter baumannii, ATCC17961, 16 h, read-out: ATCC 17961 IC90
Structures can show the parent of a compound that is named as a salt.
Can you tell me IC90 for the items I'm about to list?
Could you give me the number in nM? Just the number is fine.

API: value(readout=IC90, system=Acinetobacter baumannii ATCC17961) for record CCc1cc(Nc2nccn3c(-c4ccc(OC)c(F)c4F)cnc23)ccc1C(=O)NCCCCC[N+](C)(CCCN)CC(=O)O (stereo not shown) [Example 104, Formate]
118

Item: CCc1cc(Nc2nccn3c(-c4ccc(OC)c(F)c4F)cnc23)ccc1C(=O)NCC1CCN(C(=O)C2CC[N+](C)(CC3CNC3)CC2)CC1 (stereo not shown) [Example 133] Test system: Acinetobacter baumannii ATCC17961 Read-out: IC90 Value: ?
334

Lab note: need IC90 with Acinetobacter baumannii ATCC17961 for entry CCc1cc(Nc2nccn3c(-c4ccc(OC)c(F)c4F)cnc23)ccc1C(=O)NCC1CC[N+](C)(Cc2cccnc2)CC1 (stereo not shown) [Example 140, 2,2,2-trifluoroacetate] , please look it up.
115

Form: Entry = CCc1cc(Nc2nccn3c(-c4ccc(OC(F)F)c(F)c4F)cnc23)ccc1C(=O)NCCC1C[N+](C)(CC2CNC2)C1 (stereo not shown) [Example 90] | System = Acinetobacter baumannii ATCC17961 | IC90 = ____
320
